- ASSAY SUMMARY: qHTS assay to test for compound auto fluorescence at 535 nm (green) in HEK293 cell free culture (AID 720682)
- MEASUREMENT CONDITIONS: cell-free medium, green autofluorescence 485/535 nm; series mostly up to 91.3 µM
The source made the active and inactive calls. Calls follow the shape of the dose curve; as a rule, active = well fitted curve in the direction sought with a large enough effect in the repeat runs; inconclusive = weak or mixed curves; inactive = flat fitted curve, though single readings scatter.
OBSERVABLE: activity change

Answered cases to consult:
MOLECULE: O=C(C(Cl)(Cl)Cl)C(Cl)(Cl)Cl
READING: inactive
//
MOLECULE: O=NN1CCCCCC1
READING: inactive
//
MOLECULE: CC(c1ccc(O)cc1)(c1ccc(O)cc1)c1ccc(O)cc1
READING: inactive
//
MOLECULE: ClCC(Br)CBr (stereo unspecified)
READING: inactive
//
MOLECULE: C/C(=C\c1ccccc1)[N+](=O)[O-]
READING: inactive

With those in mind, consider the next molecule.
Prompt: Record request: activity change value, item Brc1ccccc1
Completion: inactive
